Data provenance is ChEMBL document CHEMBL3301361.

test: physchem; conditions: pH 7.4 buffer
property: log10 solubility thermodynamic (log10 of the value in µM)
Remember, log10 of solubility thermodynamic, in µM.

Sample records with log10 solubility thermodynamic:
- molecule: "CCCCNc1cc(C(=O)O)cc(S(N)(=O)=O)c1Oc1ccccc1 [BUMETANIDE]"
  property: "log10 solubility thermodynamic"
  test value: 3.16
- molecule: "O=C(Nc1cccc(O)c1)c1ccc(OCCCN2CCCC2)cc1OCc1ccccc1"
  property: "log10 solubility thermodynamic"
  test value: 0.82
- molecule: "COc1cc2c(NC(=O)Nc3ccccc3Cl)ncnc2cc1OCC1CCN(C)CC1"
  property: "log10 solubility thermodynamic"
  test value: -0.52
- molecule: "COc1ccc(Cl)cc1NC(=O)Nc1cnccn1"
  property: "log10 solubility thermodynamic"
  test value: -0.15
- molecule: "COc1ccc(CNCc2ccc(-c3cc(C(N)=O)c(NC(N)=O)s3)cc2)cc1"
  property: "log10 solubility thermodynamic"
  test value: 1.06
- molecule: "CC(C)C[C@H](N[C@@H](c1ccc(-c2ccc(S(C)(=O)=O)cc2)cc1)C(F)(F)F)C(=O)NCC#N"
  property: "log10 solubility thermodynamic"
  test value: 0.60
- molecule: "Cc1ccc(/C=C2\\SC(=O)NC2=O)cc1"
  property: "log10 solubility thermodynamic"
  test value: 1.93
- molecule: "Cc1cc(C)c(C(=O)N[C@@H](CNC(=O)CO[C@@H]2C[C@@H](CNc3ccccn3)N(C(=O)OCc3ccccc3)C2)C(=O)O)c(C)c1"
  property: "log10 solubility thermodynamic"
  test value: 2.59

// batch mode: one log10 solubility thermodynamic value per listed entry
1. CC1(C)C=Cc2c(O)nc3ccccc3c2O1
2. CNc1cccc(CCCc2ccc(C[C@H](NC(=O)c3c(Cl)cccc3Cl)C(=O)O)s2)n1
3. Cc1cc(C)cc(-c2[nH]c3sc(C(C)(C)C(=O)N4C5CCC4CC5)cc3c2CCN2CCC(C(=O)N3CCCC(O)C3)CC2)c1 (configuration not stated)
4. CC(C)OC(=O)c1cn(Cc2c(F)cccc2F)c2sc(-c3ccc(NC(=O)C(C)C)cc3)c(CN(C)Cc3ccccc3)c2c1=O

Ans:
1: 1.83; 2: 2.52; 3: 1.94; 4: 1.58

// batch mode: one log10 solubility thermodynamic value per listed entry
1. CCc1cccc2c(C#N)cn(CC(=O)NCCOC)c12
2. O=C(O)c1csc(NC(=O)C(CC2CCCC2)c2ccc(Cl)c(Cl)c2)n1 (configuration not stated)
3. CS(=O)(=O)Cc1cc(N2CCOCC2)nc(-c2cccc3cc[nH]c23)n1
4. COc1ccc(OC)c(NC(=O)Cc2cccs2)c1
5. Cc1ccc(C(=O)Nc2nccs2)cc1-n1cnc2ccc(N3CCN(C)CC3)cc2c1=O
6. CC(C)/N=c1\cc2n(-c3ccc(Cl)cc3)c3ccccc3nc-2cc1Nc1ccc(Cl)cc1
7. O=C(Nc1ccccc1O)c1cc([N+](=O)[O-])ccc1Cl
8. CN(C(=O)Cc1ccc(-n2cnnn2)cc1)[C@@H]1CCN(Cc2ccc(C(F)(F)F)nc2)C[C@@H]1F

Ans:
1. 1.57
2. 1.54
3. 0.04
4. 1.87
5. 1.96
6. -0.15
7. 1.73
8. 1.98

// batch mode: one log10 solubility thermodynamic value per listed entry
1. O=C(Nc1ccc(N2CC[S+]([O-])CC2)nc1)c1nnc(Nc2ccccc2F)o1
2. COc1cc2ncnc(Nc3cccc(Cl)c3F)c2cc1CN(C)[C@@H](C)C(N)=O

Ans:
1. 0.40
2. 1.63

// batch mode: one log10 solubility thermodynamic value per listed entry
1. Cn1c2ccccc2c2cc(NC(=O)CCc3ccncc3)ccc21
2. Cn1cnc(-c2ccccc2)c1C#Cc1ccnc(N)n1
3. O=C(O)c1cccc(N2CCC(CN3CCC(Oc4ccc(Cl)c(Cl)c4)CC3)CC2)c1
4. Cc1nc2ccc(Cl)cn2c1-c1ccnc(N)n1
5. O=C(NC1CCN(C(=O)c2cccs2)CC1)c1ccccc1
6. CCN(C(=O)Cc1ccc(S(C)(=O)=O)cc1)C1CCN(CCC(c2ccccc2)N2CCN(c3ccccc3)CC2)CC1 (configuration not stated)
7. O=S(=O)(Nc1nc(-c2sccc2Cl)cs1)c1cc(Cl)ccc1Cl
8. COc1cccc(NC(=O)Cn2cc(Oc3ccnc4cc(OC)c(OC)cc34)cn2)c1

Ans:
1: 1.04; 2: 1.23; 3: 2.15; 4: 2.88; 5: 2.22; 6: 2.84; 7: 2.18; 8: 1.82

// batch mode: one log10 solubility thermodynamic value per listed entry
1. O=C(CS(=O)(=O)c1ccccc1)c1ccccc1
2. Cc1ccc(S(=O)(=O)Nc2c(C(=O)NC3CCCCC3)c(C)nn2-c2ccccc2)cc1

Ans:
[2.37, 3.15]

// batch mode: one log10 solubility thermodynamic value per listed entry
1. CNC(=O)Nc1cc(-c2ccccc2)sc1C(N)=O
2. Clc1ccc(-c2nnc(CNC3CC3)o2)cc1
3. CN1CCC(COc2cc(OC3CCOCC3)c3c(Nc4c(Cl)ccc5c4OCO5)ncnc3c2)CC1
4. COc1ccc2c(Oc3cnc(CC(=O)Nc4cn(C)nc4C)c(OC)c3)ccnc2c1
5. Nc1ccccc1NC(=O)c1ccc(CNc2nccc(-c3cccnc3)n2)cc1
6. COc1cccc2c(O)cc(-c3ccccc3)nc12
7. CNc1cccc(CCOc2ccc(C[C@H](NC(=O)c3c(F)cccc3Cl)C(=O)O)cc2)n1

Ans:
1. 0.04
2. 3.09
3. 3.14
4. 1.18
5. 1.13
6. 2.35
7. 3.09

// batch mode: one log10 solubility thermodynamic value per listed entry
1. O=C(O)c1cc2c(F)cccc2n1Cc1ccc(Cl)c(Cl)c1
2. Cn1[nH]c(CSc2ccc(Cl)cc2)cc1=O
3. N=C1S/C(=C/c2ccco2)C(=O)N1c1nccs1

Ans:
[2.72, 2.67, 2.26]
